# ASSAY COMMENT: Cytotoxicity against human U937 cells assessed as reduction in cell viability after 24 hrs by MTT assay
# Type: functional, cell-based
# SETTINGS: U-937, 24 h
MEASURE NAME: IC50 (µg/mL)
Give a bare numeral; the unit µg/mL is implied.

compound=Nc1nn(Cc2cn(-c3ccc(F)c(Cl)c3)nn2)c2nc(-c3ccccc3)cc(C(F)(F)F)c12 measurement_units=µg/mL reported_measurement=99.1

Query :: Give recorded IC50. `Nc1nn(Cc2cn(CC(=O)Nc3c(F)cccc3F)nn2)c2nc(-c3ccccc3)cc(C(F)(F)F)c12`
Result :: 30.6

Query :: Name the recorded IC50 of the item `CCCCCCCCCCn1cc(Cn2nc(N)c3c(C(F)(F)F)cc(-c4ccccc4)nc32)nn1` in your answer.
Result :: 27.1

---

In this section, each of the molecules is paired with its reported IC50.
# ASSAY COMMENT: Cytotoxicity against human U937 cells assessed as reduction in cell viability after 24 hrs by MTT assay
# Format: functional, cell-based
# SETTINGS: U-937, 24 h
Just the number in µg/mL, nothing appended.

Known results for molecules:
molecule=Cc1ccc(NC(=O)Cn2cc(Cn3nc(N)c4c(C(F)(F)F)cc(-c5ccccc5)nc43)nn2)cc1 measure_name=IC50 measurement_units=µg/mL reported_measurement=65.3
molecule=Nc1nn(Cc2cn(CC(=O)Nc3cccc(F)c3)nn2)c2nc(-c3ccccc3)cc(C(F)(F)F)c12 measure_name=IC50 measurement_units=µg/mL reported_measurement=43.5
molecule=Nc1nn(Cc2cn(CCC(F)(F)C(F)(F)C(F)(F)C(F)(F)C(F)(F)C(F)(F)F)nn2)c2nc(-c3ccccc3)cc(C(F)(F)F)c12 measure_name=IC50 measurement_units=µg/mL reported_measurement=98.2

Query :: State its IC50: `Nc1nn(Cc2cn(-c3ccc(O)c([N+](=O)[O-])c3)nn2)c2nc(-c3ccccc3)cc(C(F)(F)F)c12`
Result :: 41.3

Query :: // fetch IC50 given entry COc1cc([C@@H]2c3cc4c(cc3[C@@H](O[C@@H]3O[C@@H]5CO[C@@H](C)O[C@H]5[C@H](O)[C@H]3O)[C@H]3COC(=O)[C@H]23)OCO4)cc(OC)c1O [ETOPOSIDE]
Result :: 6.7
